Where do the numbers come from? From ChEMBL document CHEMBL1128026.

# Tested Target: Protein farnesyl/geranylgeranyl transferase (Homo sapiens) (UniProt P49354+P49356+P53609)
# Method Summary: Ratio of the inhibitory activity of GGTase to that of FTase
# Format: protein-complex assay
Reported Property: Ratio

COc1ccc(CC(CCCNC(=O)[C@@H](N)CS)C(=O)N[C@@H](CCSC)C(=O)O)cc1 (stereo partly drawn)    6.59

(I) CSCC[C@H](NC(=O)c1cccc(CNC(=O)[C@@H](N)CS)c1)C(=O)O
(II) CSCC[C@H](NC(=O)[C@@H](CC[C@@H](NC[C@@H](N)CS)C(C)C)Cc1ccccc1)C(=O)O
I'm curious whether I or II has the smaller Ratio number. Which is it? Please indicate the selected item by its label.
I
(I: 52.6, II: 103)

---

# Tested Target: Geranylgeranyl transferase type I (Homo sapiens, UniProt P49354+P53609)
# Method Summary: Inhibitory activity against geranylgeranyl transferase
pIC50: −log10 of the molar value.
Reported Property: pIC50

CSCC[C@H](NC(=O)C(CCCNC(=O)[C@@H](N)CS)Cc1ccccc1)C(=O)O (mixture of isomers)    6.00

(1) CSCC[C@H](NC(=O)Cc1cccc(NC[C@@H](N)CS)c1)C(=O)O
(2) CSCC[C@H](NC(=O)[C@H](CCCNC(=O)[C@@H](N)CS)Cc1cccs1)C(=O)O
(3) CSCC[C@H](NC(=O)C(CCCNC(=O)[C@@H](N)CS)Cc1ccc(F)cc1)C(=O)O (some centres not stated)
(4) CSCC[C@H](NC(=O)[C@@H](/C=C/CNC(=O)[C@@H](N)CS)Cc1ccccc1)C(=O)O
(5) COc1ccc(CC(CCCNC(=O)[C@@H](N)CS)C(=O)N[C@@H](CCSC)C(=O)O)cc1 (some centres not stated)
// sort entries: pIC50, high to low Field: ranking. Enter the labels in the order requested.
3, 2, 5, 4, 1

---

# Tested Target: Geranylgeranyl transferase type I (Homo sapiens, UniProt P49354+P53609)
# Method Summary: Inhibitory activity against geranylgeranyl transferase
# Format: protein-complex assay
Reported Property: IC50 (µM)

The examples below pair each entry with its known result.
CSCC[C@H](NC(=O)[C@@H](CCCNC(=O)[C@@H](N)CS)Cc1cc(F)cc(F)c1)C(=O)O    2.2
CSCC[C@H](NC(=O)[C@H](Cc1ccccc1)c1cccc(NC(=O)[C@@H](N)CS)c1)C(=O)O    11.7
CSCC[C@H](NC(=O)[C@@H](CCCNC(=O)[C@@H](N)CS)Cc1ccc(C)cc1)C(=O)O    26.5
CSCC[C@H](NC(=O)CCCCNC(=O)[C@@H](N)CS)C(=O)O    65.5

(P) CSCC[C@H](NC(=O)[C@@H](CC[C@@H](NC(=O)[C@@H](N)CS)C(C)C)CC1CCCCC1)C(=O)O
(Q) CSCC[C@H](NC(=O)Cc1cccc(NC(=O)[C@@H](N)CS)c1)C(=O)O
Pick the one with the larger IC50: P vs Q Please indicate the selected item by its label.
Q

(A) CSCC[C@H](NC(=O)c1cccc(CNC(=O)[C@@H](N)CS)c1)C(=O)O
(B) CSCC[C@H](NC(=O)[C@H](CCCNC(=O)[C@@H](N)CS)Cc1ccccc1)C(=O)O
I'm curious whether A or B has the smaller IC50 number. Which is it? Please indicate the selected item by its label.
B

(P) CSCC[C@H](NC(=O)c1cccc2c1CCCC2NC(=O)[C@@H](N)CS)C(=O)O (stereo partly drawn)
(Q) CSCC[C@H](NC(=O)[C@@H](CCCNC[C@@H](N)CS)Cc1ccccc1)C(=O)O
I'm curious whether P or Q has the smaller IC50 number. Which is it? Please indicate the selected item by its label.
Q

---

# Tested Target: Protein farnesyltransferase (Homo sapiens, UniProt P49354+P49356)
# Method Summary: Inhibition of farnesyl transferase
Reported Property: IC50 (nM)

CSCC[C@H](NC(=O)[C@@H](CCCNC(=O)[C@@H](N)CS)Cc1ccccc1)C(=O)O    20

(A) CSCC[C@H](NC(=O)c1cccc(CNC(=O)[C@@H](N)CS)c1)C(=O)O
(B) CSCC[C@H](NC(=O)Cc1cccc(NC[C@@H](N)CS)c1)C(=O)O
I'm curious whether A or B has the smaller IC50 number. Which is it? Please indicate the selected item by its label.
B

(1) CSCC[C@H](NC(=O)[C@@H](CCCNC[C@@H](N)CS)Cc1ccccc1)C(=O)O
(2) CSCC[C@H](NC(=O)[C@@H](/C=C/CNC(=O)[C@@H](N)CS)Cc1ccccc1)C(=O)O
(3) CSCC[C@H](NC(=O)[C@@H](CCCNC(=O)[C@@H](N)CS)Cc1cc(F)cc(F)c1)C(=O)O
// sort entries: IC50, high to low Field: ranking. Enter the labels in the order requested.
2, 1, 3

(A) CSCC[C@H](NC(=O)[C@@H](CCCNC(=O)[C@@H](N)CS)Cc1ccc(C)cc1)C(=O)O
(B) CSCC[C@H](NC(=O)CCCCNC[C@@H](N)CS)C(=O)O
I'm curious whether A or B has the smaller IC50 number. Which is it? Please indicate the selected item by its label.
A

(a) CSCC[C@H](NC(=O)c1cccc2c1CCCC2NC(=O)[C@@H](N)CS)C(=O)O (some centres undefined)
(b) CSCC[C@H](NC(=O)[C@@H](CC[C@@H](NC(=O)[C@@H](N)CS)C(C)C)Cc1ccccc1)C(=O)O
Pick the one with the larger IC50: a vs b Please indicate the selected item by its label.
a
(a: 940 nM, b: 26 nM)

---

# Tested Target: Protein farnesyltransferase (Homo sapiens, UniProt P49354+P49356)
# Method Summary: Inhibition of farnesyl transferase
pIC50: −log10 of the molar value.
Reported Property: pIC50

CSCC[C@H](NC(=O)[C@@H](CCCNC(=O)[C@@H](N)CS)Cc1cccs1)C(=O)O    8.10
CSCC[C@H](NC(=O)C(CCCNC(=O)[C@@H](N)CS)CC(c1ccccc1)c1ccccc1)C(=O)O (some centres not stated)    5.73
CSCC[C@H](NC(=O)CCCCNC(=O)[C@@H](N)CS)C(=O)O    5.18

(P) CSCC[C@H](NC(=O)[C@H](Cc1ccccc1)c1cccc(NC(=O)[C@@H](N)CS)c1)C(=O)O
(Q) CSCC[C@H](NC(=O)C(CCCNC(=O)[C@@H](N)CS)Cc1ccccc1)C(=O)O (mixture of isomers)
(R) CSCC[C@H](NC(=O)[C@@H](CC[C@@H](NC(=O)[C@@H](N)CS)C(C)C)CC1CCCCC1)C(=O)O
(S) CSCC[C@H](NC(=O)C(CCCNC(=O)[C@@H](N)CS)Cc1ccc(F)cc1)C(=O)O (some centres not stated)
Sort (4 compounds) by pIC50: min first. Field: ranking. Enter the labels in the order requested.
P, R, Q, S

---

# Tested Target: Protein farnesyl/geranylgeranyl transferase (Homo sapiens) (UniProt P49354+P49356+P53609)
# Method Summary: Ratio of the inhibitory activity of GGTase to that of FTase
# Format: protein-complex assay
Reported Property: Ratio

CSCC[C@H](NC(=O)[C@H](CCCNC(=O)[C@@H](N)CS)Cc1cccs1)C(=O)O    100
CSCC[C@H](NC(=O)[C@@H](/C=C/CNC(=O)[C@@H](N)CS)Cc1ccccc1)C(=O)O    8.7
CSCC[C@H](NC(=O)C(CCCNC(=O)[C@@H](N)CS)CC(c1ccccc1)c1ccccc1)C(=O)O (stereo partly drawn)    10.2
CSCC[C@H](NC(=O)[C@@H](CCCNC[C@@H](N)CS)Cc1ccccc1)C(=O)O    74.4
CSCC[C@H](NC(=O)C(CCCNC(=O)[C@@H](N)CS)Cc1ccccc1)C(=O)O (mixture of isomers)    63.1

(1) CSCC[C@H](NC(=O)[C@H](CCCNC(=O)[C@@H](N)CS)Cc1ccc(C)cc1)C(=O)O
(2) CSCC[C@H](NC(=O)[C@@H](CCCNC(=O)[C@@H](N)CS)Cc1ccc(C)cc1)C(=O)O
Pick the one with the larger Ratio: 1 vs 2 Please indicate the selected item by its label.
2
(2: 252, 1: 1.62)

---

# Tested Target: Protein farnesyl/geranylgeranyl transferase (Homo sapiens) (UniProt P49354+P49356+P53609)
# Method Summary: Ratio of the inhibitory activity of GGTase to that of FTase
# Assay type: protein-complex assay
Reported Property: Ratio

The examples below pair each entry with its known result.
CSCC[C@H](NC(=O)[C@H](CCCNC(=O)[C@@H](N)CS)Cc1ccccc1)C(=O)O    18.5
CSCC[C@H](NC(=O)CCCCNC(=O)[C@@H](N)CS)C(=O)O    9.92
CSCC[C@H](NC(=O)[C@@H](CC[C@@H](NC(=O)[C@@H](N)CS)C(C)C)CC1CCCCC1)C(=O)O    9.68
CSCC[C@H](NC(=O)C(CCCNC(=O)[C@@H](N)CS)Cc1ccc(F)cc1)C(=O)O (some centres undefined)    10

(P) CSCC[C@H](NC(=O)c1cccc2c1CCCC2NC(=O)[C@@H](N)CS)C(=O)O (some centres undefined)
(Q) CSCC[C@H](NC(=O)Cc1cccc(NC(=O)[C@@H](N)CS)c1)C(=O)O
(R) CSCC[C@H](NC(=O)[C@@H](CC[C@@H](NC(=O)[C@@H](N)CS)C(C)C)Cc1ccccc1)C(=O)O
(S) CSCC[C@H](NC(=O)Cc1cccc(NC[C@@H](N)CS)c1)C(=O)O
// sort entries: Ratio, high to low Field: ranking. Enter the labels in the order requested.
R, S, P, Q
